We begin with a simple list: items and their reported median enrichment.
Test system: HEK293T
method: median enrichment of reporter reads in eGFP-reduced (low/intermediate) vs eGFP-high sorted cells (eGFP-extension fusion abundance) (ratio); higher = stronger loss of eGFP-fusion protein abundance (more destabilising extension)

Below, each entry is followed by its recorded median enrichment result.
>>> result("LGNCWLAWHHHTATASHLLCQGGTSSAGACPVLCGRCCVLLNTAGPAITPWAWRSLGVSRCGGGQPGWPHSITGTACLGTRFP [PIGQ]")
5.81
>>> result("LPRWFQPRHTLVPT [DNAAF5]")
4.04
>>> result("QELSERCSIPFPHGKAK [ASXL3]")
0.227
>>> result("ETSSGQNRRVPNYVLKP [SLC10A2]")
0.355
>>> result("YGPGTGGAHPATEHVRVLVLFRSPLSRCNFCSSSPTPAPSFMLLFRTQPPCPVLVVSR [STMN3]")
7.57

Incoming: Need median enrichment, item YLSVYLSIYLSIYLSIYVYLSCIYTRL [AK9]
Outgoing: 9.52

Incoming: Also need LRRGPGSLRACEEHLLPKNVWFFFLFCFRFSSFEEQREIKRRPPGRGAFSQRLGRFPKSRVPASPAEFTSVPEAAVSSS [BIN1] , thanks.
Outgoing: 7.66

Incoming: Now consider CVSYSSSMLGIPTAATMILVPERAMLLFQLV [MTMR8] .
Outgoing: 23.9

Incoming: Another sequence to check: CGCAPAGSSKDRPARSPSNPTFFWKGGVLQGQAGASSRLLGANPSMYIAFLSCLRAADSQRCARGERCAVGSRA [TNFRSF1A]
Outgoing: 13.5

Incoming: Next record, please: RGFRHCIPELL [PPM1M]
Outgoing: 1.19

----------
System: HEK293T;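 note: lentiviral eGFP-IRES-mCherry reporter pool sorted by FACS 96 h post-transduction, gated on mCherry-high cells, Illumina read counts normalized per million, median across four biological replicates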
method: median enrichment of reporter reads in eGFP-reduced (low/intermediate) vs eGFP-high sorted cells (eGFP-extension fusion abundance) (ratio); higher = stronger loss of eGFP-fusion protein abundance (more destabilising extension)
experimental-readout: median enrichment
// return a plain number; no unit text

Sample answers from the record:
>>> quantitative_result("QESSPPAHQGQDTWLGADAGPDVAEDSRAGRARGGGGGGGGGRRRRSRPLPTTSRRRRGARAEEPGTGDS [C6orf223]")
0.3
>>> quantitative_result("RIFTHIYLVSIG [FAM129C]")
28.5
>>> quantitative_result("CPDHGQGLPPCAPQLSPSKCVLRASLFFTAAATFPHCLRCREGQVPASTGISDKPRAQPTRGSSLHAHTGYGDGGLQVSSARG [SSNA1]")
7.23
>>> quantitative_result("WKRLGRGSGRGLSPPEAGKESLFSHMIFRVLETHSCRSCRTLEFLGNCPAS [GPR83]")
13.9
>>> quantitative_result("RAPWWERL [HTT]")
1.54

Incoming: State the recorded median enrichment for this entry: RPPLSPECNKHQIPCVK [POLR2I]
Outgoing: 3.52

Incoming: Another sequence to check: IIIIIIIIII [Ile10]
Outgoing: 6.67

Incoming: Same for SLYKKVGTMAAG [Degron KLHDC3]
Outgoing: 7.34

Incoming: And then QGTCPGSS [UBE2T] , what is it?
Outgoing: 0.477

Incoming: One more sequence: REKGNAQERNTVSPISDLDSTGYMEEI [OR8B8]
Outgoing: 0.597

Data credit: the supplement of paper PMC11502859
